For each entry below, report its pIC50 value.
TEST_SYSTEM: UniProt:P49327
ASSAY_METHOD_TEXT: Inhibition of fatty acid synthase KR domain (unknown origin)
Give bare numbers, as −log10 of the molar value.

- SMILES_STRUCTURE: "CC1(C)N=C(c2ccc(-c3c[nH]c4ccccc34)cc2)N(C[C@@H]2CCN(C(=O)C3CC3)C2)C1=O"
  TEST_SYSTEM: "UniProt:P49327"
  TEST_RESULT: 7.39

Proceed to the following item.
Can you share its pIC50? I mean this compound: Cc1ccc(C(=O)N2CCC(c3ccc4nncn4c3)CC2)cc1NC(=O)c1ccc(Cl)nc1
7.03

###

TEST_SYSTEM: Fatty acid synthase (Homo sapiens, UniProt P49327)
Sequence (P49327 whole entry): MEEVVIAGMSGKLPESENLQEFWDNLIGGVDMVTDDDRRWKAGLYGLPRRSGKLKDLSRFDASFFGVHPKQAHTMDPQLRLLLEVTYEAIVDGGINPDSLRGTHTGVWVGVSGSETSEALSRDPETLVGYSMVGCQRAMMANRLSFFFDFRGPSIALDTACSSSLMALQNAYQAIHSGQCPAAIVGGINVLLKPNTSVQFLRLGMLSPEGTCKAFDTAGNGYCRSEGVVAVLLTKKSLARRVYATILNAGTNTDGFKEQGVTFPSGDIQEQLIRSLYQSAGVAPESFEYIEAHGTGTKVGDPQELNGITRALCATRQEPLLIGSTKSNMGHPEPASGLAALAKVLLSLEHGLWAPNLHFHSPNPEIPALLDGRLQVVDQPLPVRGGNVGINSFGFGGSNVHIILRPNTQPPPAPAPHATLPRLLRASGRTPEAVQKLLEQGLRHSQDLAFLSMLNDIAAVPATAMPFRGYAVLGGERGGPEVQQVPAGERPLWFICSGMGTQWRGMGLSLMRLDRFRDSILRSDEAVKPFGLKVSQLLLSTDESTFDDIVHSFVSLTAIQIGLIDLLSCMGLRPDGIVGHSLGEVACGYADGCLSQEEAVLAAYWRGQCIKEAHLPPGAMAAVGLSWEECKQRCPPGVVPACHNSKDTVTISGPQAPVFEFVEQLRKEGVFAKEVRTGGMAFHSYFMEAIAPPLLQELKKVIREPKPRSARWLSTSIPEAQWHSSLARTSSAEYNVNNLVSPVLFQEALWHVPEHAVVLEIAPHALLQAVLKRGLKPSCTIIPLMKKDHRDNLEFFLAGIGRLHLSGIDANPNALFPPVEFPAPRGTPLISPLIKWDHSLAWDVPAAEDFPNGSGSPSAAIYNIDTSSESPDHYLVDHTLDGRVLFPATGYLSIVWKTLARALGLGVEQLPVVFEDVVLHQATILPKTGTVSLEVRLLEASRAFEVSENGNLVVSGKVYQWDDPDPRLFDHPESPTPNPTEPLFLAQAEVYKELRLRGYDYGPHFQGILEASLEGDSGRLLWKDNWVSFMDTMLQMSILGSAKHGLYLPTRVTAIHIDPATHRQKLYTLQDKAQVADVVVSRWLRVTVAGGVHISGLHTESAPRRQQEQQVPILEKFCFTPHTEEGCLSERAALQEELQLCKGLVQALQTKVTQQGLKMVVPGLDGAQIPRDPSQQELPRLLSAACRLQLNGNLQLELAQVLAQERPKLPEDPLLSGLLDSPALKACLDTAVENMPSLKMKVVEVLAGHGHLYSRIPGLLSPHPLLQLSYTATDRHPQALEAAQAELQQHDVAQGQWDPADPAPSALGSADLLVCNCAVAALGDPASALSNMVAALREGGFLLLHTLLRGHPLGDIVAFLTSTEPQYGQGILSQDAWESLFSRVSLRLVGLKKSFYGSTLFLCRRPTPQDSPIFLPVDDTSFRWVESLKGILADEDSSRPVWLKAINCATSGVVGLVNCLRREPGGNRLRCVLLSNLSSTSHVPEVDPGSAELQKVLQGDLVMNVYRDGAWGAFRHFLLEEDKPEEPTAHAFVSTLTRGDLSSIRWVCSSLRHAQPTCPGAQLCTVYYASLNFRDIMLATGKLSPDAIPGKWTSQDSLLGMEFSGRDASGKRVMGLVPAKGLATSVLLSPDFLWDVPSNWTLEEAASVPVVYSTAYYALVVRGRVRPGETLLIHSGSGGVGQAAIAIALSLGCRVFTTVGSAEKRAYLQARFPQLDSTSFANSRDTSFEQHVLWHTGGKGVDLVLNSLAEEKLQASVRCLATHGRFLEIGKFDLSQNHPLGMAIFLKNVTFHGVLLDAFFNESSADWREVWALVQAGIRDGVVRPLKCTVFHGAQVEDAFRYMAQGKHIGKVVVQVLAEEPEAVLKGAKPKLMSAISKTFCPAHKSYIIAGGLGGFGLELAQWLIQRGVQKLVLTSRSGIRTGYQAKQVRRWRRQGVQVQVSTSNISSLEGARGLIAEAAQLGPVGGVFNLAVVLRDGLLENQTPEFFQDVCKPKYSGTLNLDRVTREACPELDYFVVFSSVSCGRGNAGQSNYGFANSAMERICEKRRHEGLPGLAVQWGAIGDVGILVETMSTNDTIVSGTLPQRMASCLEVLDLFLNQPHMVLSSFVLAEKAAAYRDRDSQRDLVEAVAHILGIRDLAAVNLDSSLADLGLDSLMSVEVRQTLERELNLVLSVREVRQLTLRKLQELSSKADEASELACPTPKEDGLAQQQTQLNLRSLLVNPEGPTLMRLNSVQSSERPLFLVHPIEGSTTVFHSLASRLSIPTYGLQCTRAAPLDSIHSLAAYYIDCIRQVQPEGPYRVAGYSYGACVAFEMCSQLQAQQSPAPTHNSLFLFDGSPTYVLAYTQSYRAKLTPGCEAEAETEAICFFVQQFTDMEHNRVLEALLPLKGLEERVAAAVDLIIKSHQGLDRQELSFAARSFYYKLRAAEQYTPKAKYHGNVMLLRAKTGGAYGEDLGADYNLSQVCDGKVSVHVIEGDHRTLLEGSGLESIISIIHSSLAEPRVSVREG
ASSAY_METHOD_TEXT: Inhibition of fatty acid synthase (unknown origin)
Answer each item with its documented IC50.
Answers are plain numbers, in nM.

Recorded results for 4 compounds are shown here.
- COMPOUND: "CN(C[C@@H]1CCN(C(=O)C2CC2)C1)C(=O)c1ccc(-c2ccc3[nH]ccc3c2)cc1F"
  IC50 / nM: 20
- COMPOUND: "O=C1COC2(CCN(S(=O)(=O)c3ccc(-c4cccc5cnccc45)cc3)CC2)CN1C1CC1"
  IC50 / nM: 6
- COMPOUND: "O=C(C1CC1)N1CC[C@@H](Cc2n[nH]c(=O)n2-c2ccc(-c3ccc4ccncc4c3)cc2F)C1"
  IC50 / nM: 3
- COMPOUND: "O=C(C1CC1)N1CCC(Cn2cnnc2-c2ccc(-c3ccc4[nH]ncc4c3)cc2)C1 (single isomer, unassigned)"
  IC50 / nM: 13

Please tell me: IC50 of N#Cc1ccc2cc(N3CCN(S(=O)(=O)N4CCC5(CC4)CN(C4CC4)C(=O)CO5)CC3)ccc2c1 , system Fatty acid synthase (Homo sapiens, UniProt P49327)?
10
